quantityMeasured: melting point

Here are 10 compounds together with their reported answers.
{"entrySmiles": "O=C1NN=C(Nc2ccc(Cl)cc2)C1=Cc1c[nH]c2ccccc12", "quantityMeasured": "melting point", "measurement": "248 to 250 °C"}
{"entrySmiles": "Cn1cc(C=C2C(=O)NN=C2CCc2ccc(O)cc2)c2ccccc21", "quantityMeasured": "melting point", "measurement": "255 to 257 °C"}
{"entrySmiles": "CN(C)c1ccc(C=C2C(=O)NN=C2Cc2ccccc2)cc1", "quantityMeasured": "melting point", "measurement": "253 to 255 °C"}
{"entrySmiles": "Cn1cc(C=C2C(=O)NN=C2c2cnccn2)c2ccccc21", "quantityMeasured": "melting point", "measurement": "263 to 265 °C"}
{"entrySmiles": "O=C1NN=C(C2CCCCC2)C1=Cc1ccc[nH]1", "quantityMeasured": "melting point", "measurement": "176 to 178 °C"}
{"entrySmiles": "CC(C)OC1=NNC(=O)C1=Cc1ccc(O)c2ncccc12", "quantityMeasured": "melting point", "measurement": "> 300 °C"}
{"entrySmiles": "O=C1NN=C(C2CCCC2)C1=Cc1ccc[nH]1", "quantityMeasured": "melting point", "measurement": "127 to 129 °C"}
{"entrySmiles": "Cn1cc(C=C2C(=O)NN=C2NC(=O)C(F)(F)F)c2ccccc21", "quantityMeasured": "melting point", "measurement": "252 to 253 °C"}
{"entrySmiles": "O=C1NN=C(Nc2ccc(F)cc2)C1=Cc1ccc[nH]1", "quantityMeasured": "melting point", "measurement": "272 to 273 °C"}
{"entrySmiles": "Cc1ccc(NC2=NNC(=O)C2=Cc2ccc[nH]2)cc1", "quantityMeasured": "melting point", "measurement": "256 to 258 °C"}

Would you mind telling me what melting point value was observed for "CCN(CC)CCCCc1c(C)[nH]c(C=C2C(=O)NN=C2c2cnccn2)c1C" ? 184 °C

Similarly, "Cc1[nH]c(C=C2C(=O)NN=C2C2CC2)c(C)c1CNC(=O)C(F)(F)F" ? 278 to 280 °C

Similarly, "O=C1NN=C(C2CCC2)C1=Cc1c[nH]c2ncccc12" ? 300 to 302 °C

Similarly, "Cc1c(C=C2C(=O)NN=C2OC(C)C)[nH]c2ccccc12" ? 241 to 243 °C

Similarly, "Cn1cc(C=C2C(=O)NN=C2C2CC2)c2ccccc21" ? 245 to 247 °C
